- SYSTEM: TNF-α (Homo sapiens)
- Sequence (P01375 77-233 limits assumed): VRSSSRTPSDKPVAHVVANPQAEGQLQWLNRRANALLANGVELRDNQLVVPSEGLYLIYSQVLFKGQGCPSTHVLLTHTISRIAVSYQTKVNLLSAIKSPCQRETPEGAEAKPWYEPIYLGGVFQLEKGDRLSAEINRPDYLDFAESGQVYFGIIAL
- PROCEDURE DETAILS: TNF-α Induced HEK Blue Cellular Assay
- TEST CONTEXT: HEK Blue TNFα reporter cells, TNF-α 100 pg/ml, 24 hrs at 37° C., secreted alkaline phosphatase (QUANTI-Blue, 620 nm)
- Method: TNF-α Induced HEK Bluet Cellular Assay Test articles were diluted in DMSO and serially diluted into 384 well assay plate (Corning 3765), at final concentrations ranging from 30 mM to 0.5 nM. […]
pIC50: −log10 of the molar value.
ASSAY ENDPOINT: pIC50

Solved entries (count: 2):
COMPOUND: CC[C@@H](Nc1c(Cl)c(C)nc2cc(F)c(-c3ccc(P(C)(C)=O)nc3)nc12)c1ccccc1 [Example 79]
pIC50: ≥ 7.00
--
COMPOUND: Cc1nc2cc(F)c(-c3ccc(P(C)(C)=O)nc3)nc2c(N[C@H](C)c2ccccc2F)c1Cl [Example 18]
pIC50: ≥ 7.00

Provide pIC50 for all items below, preserving their order.
1. Cc1nc2cc(F)c(-c3ccc(P(C)(C)=O)nc3)nc2c(N[C@H](C)c2cccc(F)c2F)c1C [Example 133]
2. Cc1nc2cc(F)c(-c3ccc(P(C)(C)=O)nc3)c(F)c2c(N[C@H](C)c2ccccc2F)c1Cl [Example 72]
3. CC[C@@H](Nc1c(Cl)c(C)nc2cc(F)c(-c3ccc(P(C)(C)=O)c(F)c3)nc12)c1ccccc1F [Example 24]
4. Cc1nc2cc(F)c(-c3cnc(P(C)(C)=O)nc3)cc2c(N[C@H](C)c2cc(C#N)ccc2F)c1Cl [Example 8]
5. Cc1nc2cc(F)c(-c3ccc(P(C)(C)=O)nc3)nc2c(N[C@H](C)c2cccc(F)c2F)c1C1CC1 [Example 134]
6. Cc1nc2cc(F)c(-c3ccc(P(C)(C)=O)nc3)nc2c(N[C@H](C)c2cc(C#N)ccc2F)c1Cl [Example 2]

1: ≥ 7.00; 2: ≥ 6.00; 3: ≥ 6.00; 4: ≥ 7.00; 5: 5.00 to 6.00; 6: ≥ 7.00

Hey, can you go through the list below and give me pIC50 for every item?
1. Cc1nc2cc(F)c(-c3cnc(P(C)(C)=O)nc3)nc2c(N[C@H](C)c2ccccc2C(F)(F)F)c1Cl [Example 55]
2. Cc1nc2cc(F)c(-c3ccc(P(C)(C)=O)nc3)nc2c(NC2(c3ccccn3)CC2)c1Cl [Example 111]
3. CC[C@@H](Nc1c(Cl)c(C)nc2cc(F)c(-c3cnc(P(C)(C)=O)nc3)nc12)c1cccc(F)c1F [Example 113]
4. CC[C@@H](Nc1c(Cl)c(C)nc2cc(F)c(-c3ccc(P(C)(C)=O)nc3)nc12)c1cc(C#N)ccc1F [Example 20]

4.52 to 5.00
≥ 7.00
≥ 6.00
≥ 7.00

Would you be so kind as to report pIC50 for each listed record?
1. Cc1nc2cc(F)c(-c3ccc(P(C)(C)=O)nc3)nc2c(N[C@H](C)c2cc(C3CC3)ccc2F)c1Cl [Example 150]
2. Cc1nc2cc(F)c(-c3ccc(P(C)(C)=O)nc3)nc2c(N[C@H](C)c2cc(F)ccc2F)c1Cl [Example 53]
3. Cc1nc2cc(F)c(-c3ccc(P(C)(C)=O)nc3)nc2c(N[C@H](c2cc(C#N)ccc2F)C(F)F)c1Cl [Example 35]
4. Cc1nc2cc(F)c(-c3cnc(P(C)(C)=O)nc3)cc2c(N[C@H](C)c2ccccc2F)c1Cl [Example 11]
5. CC[C@@H](Nc1c(Cl)c(C)nc2cc(F)c(-c3ccc(P(C)(C)=O)c(F)c3)nc12)c1ncccc1F [Example 4]
6. Cc1nc2cc(F)c(-c3cnc(P(C)(C)=O)c(F)c3)nc2c(N[C@H](C)c2cccc(F)c2F)c1Cl [Example 107]
7. Cc1nc2cc(F)c(-c3cnc(P4(=O)CCCC4)nc3)nc2c(N[C@H](C)c2cc(C#N)ccc2F)c1Cl [Example 49]
8. Cc1nc2cc(F)c(-c3ccc(P(C)(C)=O)nc3)nc2c(N[C@H](C)c2cc(F)cc(C#N)c2)c1Cl [Example 99]

1. ≥ 6.00
2. ≥ 6.00
3. ≥ 6.00
4. ≥ 7.00
5. ≥ 6.00
6. ≥ 6.00
7. ≥ 7.00
8. ≥ 6.00
